- tested-target: 26S proteasome non-ATPase regulatory subunit 14 (Homo sapiens, UniProt O00487)
- Sequence (O00487 whole entry): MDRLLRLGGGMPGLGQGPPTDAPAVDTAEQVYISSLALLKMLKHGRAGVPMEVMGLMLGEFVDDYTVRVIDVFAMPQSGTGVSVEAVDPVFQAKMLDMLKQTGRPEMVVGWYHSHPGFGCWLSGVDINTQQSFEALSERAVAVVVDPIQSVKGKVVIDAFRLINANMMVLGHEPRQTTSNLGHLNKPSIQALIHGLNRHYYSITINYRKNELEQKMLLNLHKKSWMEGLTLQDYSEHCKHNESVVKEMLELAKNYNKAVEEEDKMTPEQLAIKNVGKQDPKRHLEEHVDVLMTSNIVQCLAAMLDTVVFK
- assay-method-text: inhibition of proteasome subunit RPN11 – biochemical, fluorescence polarization, uHTS hits, confirmation (AID 602368)
- Type: functional
Activity calls are given as the source filed them. How the calls were made is not given here.
Known IC50 of a selection of compounds

given-smiles: C/C(C/C(C)=C1/SC(=S)NC1=O)=C1\SC(=S)NC1=O
IC50: 43.6 µM (active)
//
given-smiles: NS(=O)(=O)c1ccc(N/C=C\C(=O)c2ccc3ccccc3c2)cc1
IC50: 28.6 µM (active)
//
given-smiles: CC(C)Cc1nnc(NC(=O)Cc2cccs2)s1
IC50: 20.6 µM (active)
//
given-smiles: COc1ccc(C(=O)Nc2ccc(/C(C)=N/NC(=O)c3ccncc3)cc2)cc1
IC50: 43 µM (active)
